Just for reference, patent US20250353911A1 is where these values come from.

biological target: T1, Human serum albumin (HSA) (human, UniProt P02768 25-609); test: ELISA on coated human albumin, anti-human Fc HRP, A650, one site-total binding fit
T1 construct: also called human albumin; recombinant human albumin
T1 sequence (P02768 25-609): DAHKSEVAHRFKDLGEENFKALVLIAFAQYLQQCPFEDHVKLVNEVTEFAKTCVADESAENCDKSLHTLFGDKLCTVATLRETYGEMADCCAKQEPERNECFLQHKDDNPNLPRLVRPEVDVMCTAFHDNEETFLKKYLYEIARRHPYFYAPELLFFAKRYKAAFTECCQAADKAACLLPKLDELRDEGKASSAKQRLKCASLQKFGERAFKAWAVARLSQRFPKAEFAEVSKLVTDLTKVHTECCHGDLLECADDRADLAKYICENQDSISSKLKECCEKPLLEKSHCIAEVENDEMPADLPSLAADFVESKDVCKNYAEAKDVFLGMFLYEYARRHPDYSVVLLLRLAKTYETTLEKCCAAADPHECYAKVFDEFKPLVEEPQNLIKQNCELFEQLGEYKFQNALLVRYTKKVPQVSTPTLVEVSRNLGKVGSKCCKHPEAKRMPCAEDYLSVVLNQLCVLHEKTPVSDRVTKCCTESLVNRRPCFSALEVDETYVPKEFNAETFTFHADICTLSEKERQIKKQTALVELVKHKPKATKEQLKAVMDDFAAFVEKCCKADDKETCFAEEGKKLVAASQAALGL
ATTRIBUTE_MEASURED: Kd (nM)
One number for each entry, in nM.

Take a look at these entries with their results.
{"BINDER": "4A01v5 (Fc fusion, not shown: a dimerising Fc or GST; small tags and cut ends, also called Hz4A01v5) VHH: EVQLVESGGGEVQPGGSLRLSCAASGFAFSTSGMVWVRQAPGKGLEWVSTISDEGRIIRYAESVKGRFTISRDNAKNTLYLQMNSLRAEDTAVYYCATYRAGSRIGSYEDYYRGQGTLVTVKP", "Kd (nM)": 0.276}
{"BINDER": "4A01v4 (Fc fusion, not shown: a dimerising Fc or GST; small tags and cut ends, also called Hz4A01v4) VHH: EVQLVESGGGEVQPGGSLRLSCAASGFAFSTSGMVWVRQAPGKGLEWVSTISDESRIIRYAESVKGRFTISRDNAKNTLYLQMNSLRAEDTAVYYCATYRAGSRIGSYEDYYRGQGTLVTVKP", "Kd (nM)": 0.378}
{"BINDER": "4A01v6 (Fc fusion, not shown: a dimerising Fc or GST; small tags and cut ends, also called Hz4A01v6) VHH: EVQLVESGGGEVQPGGSLRLSCAASGFAFSTSGMVWVRQAPGKGLEWVSTISDSGRIIRYAESVKGRFTISRDNAKNTLYLQMNSLRAEDTAVYYCATYRAGSRIGSYEDYYRGQGTLVTVKP", "Kd (nM)": 0.332}

// next item, Kd requested
Task item: Which measured Kd value corresponds to 4A01v8 (Fc fusion, not shown: a dimerising Fc or GST; small tags and cut ends, also called Hz4A01v8) VHH: EVQLVESGGGEVQPGGSLRLSCAASGFAFSTSGMVWVRQAPGKGLEWVSTISDNARIIRYAESVKGRFTISRDNAKNTLYLQMNSLRAEDTAVYYCATYRAGSRIGSYEDYYRGQGTLVTVKP ?
Reply: 0.428
